Reference source for all entries: PubChem BioAssay (NCI)

- System: OVCAR-3 ovarian
- Protocol description: NCI-60 one-dose screen, 48 h (100 = growth as untreated, 0 = no growth, -100 = all killed)
- Condition description: 10 µM unless noted
About 83,000 compounds went through this panel and 20% of them were active in at least one assay; those are over-represented in the sample as a whole.
Recorded growth, one value per entry.
Answer with a number only, understood to be in %.

Example entries and their recorded answers appear below.
Compound	Target system	growth [%]
NC1CCN(c2nc(Nc3cccc(C(F)(F)F)c3)c3c(=O)[nH]ccc3n2)CC1	OVCAR-3 ovarian	-72.2
CN1CCN(c2ccc(-c3ccc4ncc(C#N)c(Nc5ccc(F)c(Cl)c5)c4c3)cn2)CC1	OVCAR-3 ovarian	58.6
Cc1nn(-c2ccccc2)c(-n2ccnc2)c1/C=N/Nc1nc(-c2ccc(Cl)c(Cl)c2)cs1	OVCAR-3 ovarian	-69.4
O=C1CCC/C=C\C[C@H]2C=CC(=O)/C2=C/C[C@H](CCc2cccc(C(F)(F)F)c2)O1	OVCAR-3 ovarian	-65.8
CCOC(=O)c1c(C)nc2c(c1N)CC(=O)N2Cc1ccc(F)cc1	OVCAR-3 ovarian	99.5

Reported growth, compound CC(=O)N1CCN(c2ccc(OCC3CO[C@](Cn4ccnc4)(c4ccc(Cl)cc4Cl)O3)cc2)CC1 (some centres undefined) : ____
99

For O=c1c2cc(F)ccc2sc2c(N3CCCCC3)nc3ccccc3c12 , what is its reported growth?
110

What value of growth has been reported for the following compound? CCCC1CCC(O)(C(C)(O)C(=O)NC2C(=O)N3NCCCC3C(=O)N(O)C(C)C(=O)N3NCCCC3C(=O)N3NCC(O)CC3C(=O)NC(C)C(=O)OC2C(C)C)OC1CC (centres undefined)
-89.9

Using the record for CCCCn1c(-c2ccc(C(=O)O/N=C(\N)c3ccc(OC)cc3)cc2)nc(-c2ccccc2)c1-c1ccccc1 , report its growth.
-6.99
